- Test system: 156681-154-R-J1-PDC complex spheroid viability;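 further: spheroids exposed to the agents for seven days; 100% = DMSO vehicle control viability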
- Measurement Protocol: Anticancer human tumor 156681-154-R-J1-PDC patient-derived melanoma cell line growth inhibition [CLK]
- Setup Conditions: second compound 0.0316 µM; first compound 0.316 µM; hits give low values
Assay Endpoint: viability, T/C (%)

>  <Molecule>
O=c1[nH]cc(F)c(=O)[nH]1 + CN1CCN(c2cc(C(=O)Nc3cc4cc(-c5cnn(C)c5)ccc4cn3)ccn2)CC1

>  <Assay Endpoint>
viability, T/C

>  <Unit Tag>
%

>  <Value Reported>
96.2

$$$$
>  <Molecule>
COc1cccc2c1C(=O)c1c(O)c3c(c(O)c1C2=O)CC(O)(C(=O)CO)CC3OC1CC(N)C(O)C(C)O1 (stereo unspecified) + CN1CCN(c2cc(C(=O)Nc3cc4cc(-c5cnn(C)c5)ccc4cn3)ccn2)CC1

>  <Assay Endpoint>
viability, T/C

>  <Unit Tag>
%

>  <Value Reported>
4.36

$$$$
>  <Molecule>
CC(Nc1ccc2c(c1)OCCn1cc(N3C(=O)OCC3C(F)F)nc1-2)C(N)=O (stereo unspecified) + CN1CCN(c2cc(C(=O)Nc3cc4cc(-c5cnn(C)c5)ccc4cn3)ccn2)CC1

>  <Assay Endpoint>
viability, T/C

>  <Unit Tag>
%

>  <Value Reported>
49.4

$$$$
>  <Molecule>
C=C(F)C(=O)N1CCN(c2nc(OCC3CCCN3C)nc3c2CCN(c2cccc4cccc(Cl)c24)C3)CC1CC#N (stereo unspecified) + CNC(=O)c1ccc(Nc2nc(OC3CCCC3)c3c(-c4ccc5nc(C)oc5c4)c[nH]c3n2)c(OC)c1

>  <Assay Endpoint>
viability, T/C

>  <Unit Tag>
%

>  <Value Reported>
76.5

$$$$
>  <Molecule>
CC1(C)CCC(CN2CCN(c3ccc(C(=O)NS(=O)(=O)c4ccc(NCC5CCOCC5)c([N+](=O)[O-])c4)c(Oc4cnc5[nH]ccc5c4)c3)CC2)=C(c2ccc(Cl)cc2)C1 + CNC(=O)c1ccc(Nc2nc(OC3CCCC3)c3c(-c4ccc5nc(C)oc5c4)c[nH]c3n2)c(OC)c1

>  <Assay Endpoint>
viability, T/C

>  <Unit Tag>
%

>  <Value Reported>
103

$$$$
>  <Molecule>
COc1c(OCCCN2CCOCC2)ccc2c3n(c(=NC(=O)c4cnc(N)nc4)nc12)CCN3 + CNC(=O)c1ccc(Nc2nc(OC3CCCC3)c3c(-c4ccc5nc(C)oc5c4)c[nH]c3n2)c(OC)c1

>  <Assay Endpoint>
viability, T/C

>  <Unit Tag>
%

>  <Value Reported>
2.95

$$$$
>  <Molecule>
CCCS(=O)(=O)Nc1ccc(F)c(C(=O)c2c[nH]c3ncc(-c4ccc(Cl)cc4)cc23)c1F + CNC(=O)c1ccc(Nc2nc(OC3CCCC3)c3c(-c4ccc5nc(C)oc5c4)c[nH]c3n2)c(OC)c1

>  <Assay Endpoint>
viability, T/C

>  <Unit Tag>
%

>  <Value Reported>
70.7

$$$$
>  <Molecule>
CC(=O)O[C@H]1C(=O)[C@@]2(C)[C@H]([C@H](OC(=O)c3ccccc3)[C@]3(O)C[C@H](OC(=O)[C@H](O)[C@@H](NC(=O)c4ccccc4)c4ccccc4)C(C)=C1C3(C)C)[C@]1(OC(C)=O)CO[C@@H]1C[C@@H]2O + CN1CCN(c2cc(C(=O)Nc3cc4cc(-c5cnn(C)c5)ccc4cn3)ccn2)CC1

>  <Assay Endpoint>
viability, T/C

>  <Unit Tag>
%

>  <Value Reported>
18.9

$$$$
>  <Molecule>
CC1COCCN1c1cc(C2(S(C)(=N)=O)CC2)nc(-c2ccnc3[nH]ccc23)n1 (stereo unspecified) + CNC(=O)c1ccc(Nc2nc(OC3CCCC3)c3c(-c4ccc5nc(C)oc5c4)c[nH]c3n2)c(OC)c1

>  <Assay Endpoint>
viability, T/C

>  <Unit Tag>
%

>  <Value Reported>
86.5

$$$$
>  <Molecule>
CCN1CCN(Cc2ccc(Nc3ncc(F)c(-c4cc(F)c5nc(C)n(C(C)C)c5c4)n3)nc2)CC1 + CNC(=O)c1ccc(Nc2nc(OC3CCCC3)c3c(-c4ccc5nc(C)oc5c4)c[nH]c3n2)c(OC)c1

>  <Assay Endpoint>
viability, T/C

>  <Unit Tag>
%

>  <Value Reported>
75.5

$$$$
>  <Molecule>
Nc1ccccc1NC(=O)c1ccc(CNC(=O)OCc2cccnc2)cc1 + CNC(=O)c1ccc(Nc2nc(OC3CCCC3)c3c(-c4ccc5nc(C)oc5c4)c[nH]c3n2)c(OC)c1

>  <Assay Endpoint>
viability, T/C

>  <Unit Tag>
%

>  <Value Reported>
64.9

$$$$
